Molecular target: SOS1/KRAS WT (Homo sapiens (Human))
Sequence (Q07889 564-1049): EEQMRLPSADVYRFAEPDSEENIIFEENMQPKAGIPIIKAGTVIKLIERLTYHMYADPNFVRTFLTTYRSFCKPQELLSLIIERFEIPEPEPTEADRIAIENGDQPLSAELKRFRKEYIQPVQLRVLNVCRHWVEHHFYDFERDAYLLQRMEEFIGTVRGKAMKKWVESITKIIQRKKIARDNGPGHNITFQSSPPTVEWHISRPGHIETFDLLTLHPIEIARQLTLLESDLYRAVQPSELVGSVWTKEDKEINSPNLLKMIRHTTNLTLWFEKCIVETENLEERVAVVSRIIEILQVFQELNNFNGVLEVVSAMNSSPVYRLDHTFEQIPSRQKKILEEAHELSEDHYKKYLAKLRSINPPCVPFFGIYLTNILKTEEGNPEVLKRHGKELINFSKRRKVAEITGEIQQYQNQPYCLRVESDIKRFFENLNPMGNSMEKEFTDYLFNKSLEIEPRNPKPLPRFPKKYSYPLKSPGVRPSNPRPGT
Assay: SOS1/KRAS WT HTRF binding assay (FRET-based protein-protein interaction)
Settings: inhibition of His6-SOS1 (aa564-1049, 40 nM) binding to GST-KRAS-WT (aa1-188, 40 nM); at least two independent replicates; read-out: SOS1/KRAS WT HTRF Binding assay pIC50 (converted)
measurement_type: IC50
Include the unit right after the number.

Record excerpt, results attached:
compound | IC50
CCC1(OC)C(=O)N(C)c2cc3c(N[C@H](C)c4cccc(C(F)(F)CO)c4)nnc(C)c3cc21 (stereo partly shown) | 0.0145 µM
Cc1nnc(N[C@H](C)c2cccc(C(F)(F)F)c2)c2cc3c(cc12)n(C1CC1)c(=O)n3C | 0.0115 µM
CCN1C(=O)C(C)(OC)c2cc3c(C)nnc(N[C@H](C)c4cccc(C(F)(F)CO)c4C)c3cc21 (stereo partly shown) | 0.00891 µM

# batch size: 4; output IC50 per entry
1. Cc1nnc(N[C@H](C)c2cccc(C(F)(F)CO)c2)c2cc3c(cc12)n(C)c(=O)n3C
2. Cc1nnc(N[C@H](C)c2cccc(C(F)(F)F)c2F)c2cc3c(cc12)n(C)c(=O)n3C1CC1
3. CCOC1(C)C(=O)N(C2CC2)c2cc3c(N[C@H](C)c4cccc(C(F)(F)C(C)(C)O)c4F)nnc(C)c3cc21 (stereo partly shown)
4. Cc1nnc(N[C@H](C)c2cccc(C(F)F)c2F)c2cc3c(cc12)n(C)c(=O)n3C

0.0186 µM
0.00813 µM
0.0107 µM
0.00955 µM
